Form field: TGI (one value per entry).
Tested on: SK-MEL-5 melanoma
Test: NCI tumour cell line growth inhibition, 48 h

Example compounds with recorded TGI:
COMPOUND	TEST TARGET	TGI
O=[N+]([O-])/C=C/c1ccc(Cl)cc1[N+](=O)[O-]	SK-MEL-5 melanoma	21.5 µM
CC1(C)OC(=O)C(=C2CCC(C(=O)Nc3cccc(C(F)(F)F)c3)N2)C(=O)O1 (stereo not given)	SK-MEL-5 melanoma	> 100 µM
Clc1ccc(CN2CCCN(Cc3ccc(Cl)cc3)C2c2cc3ccccc3c3ccccc23)cc1	SK-MEL-5 melanoma	32.7 µM
CC(=O)c1ccc(Nc2c3ccccc3nc3occc23)cc1	SK-MEL-5 melanoma	3.91 µM

Read the next record carefully.
Query: Param item = `COC(=O)/C=C\C(C#N)(C#N)N=Cc1ccc(OC)cc1` ; retrieve measured TGI.
Reply: 32.6 µM

###

Test system: HOP-62 NSCLC
Test: NCI tumour cell line growth inhibition, 48 h
QUANTITY NAME: TGI (µM)
The reply should contain only the number, in µM.

Example molecules with recorded TGI:
MOLECULE	TEST TARGET	TGI (µM)
CCOC(=O)CCC(NC(=O)c1ccc(NC(OC)c2nc3cc(C(F)(F)F)ccc3nc2-c2ccccc2)cc1)C(=O)OCC (stereo not given)	HOP-62 NSCLC	31.2
Cc1cc(C)nc(NS(=O)(=O)c2ccc(Nc3c4ccccc4nc4c(C(=O)NCCN(C)C)cccc34)cc2)n1	HOP-62 NSCLC	14.5
O=C1c2c(Br)sc(Br)c2[C@@H](O)[C@H]1O	HOP-62 NSCLC	30.6
O=C(Nc1ccccc1)Oc1ccc(C(=S)Nc2ccc(Br)cc2)cc1	HOP-62 NSCLC	82.1

Read the next record carefully.
Query: Param item = `CCOC(=O)c1c(CN2CCN(C)CC2)nc2ccc(Cl)cc2c1-c1ccccc1` ; retrieve measured TGI.
Reply: 25

###

Tested on: K-562 leukemia
Assay: NCI tumour cell line growth inhibition, 48 h; in the data active = GI50 below about 0.43 µM; inactive = the rest
Select the correct class. Options are 1.0 (active), 0.0 (inactive) and nothing else.

COMPOUND	LABEL CLASS
COc1ccc2c(c1)C(=O)c1c-2c(OCCN(C)C)nc2cc(OC)c(OC)cc12	0.0

Query: Look up the recorded call for `Cc1cc(S(N)(=O)=O)c(S/C(=N\NS(=O)(=O)c2ccccc2)c2ccc(Cl)cc2)cc1Cl` in this test.
Reply: 0.0

Query: Look up the recorded call for `COc1cccc(-c2nc3sccn3c2-c2ccnc(NCCCNS(=O)(=O)c3ccccc3)c2)c1` in this test.
Reply: 0.0

Query: Look up the recorded call for `COc1ccc(-c2cc(/C=C/C(=O)c3ccc(N)cc3)[nH]n2)cc1` in this test.
Reply: 0.0

Query: Look up the recorded call for `C=CC(=O)Nc1cc2c(Nc3ccc(F)c(Cl)c3)ncnc2cc1C#CC(C)(C)N1CCN(C)CC1` in this test.
Reply: 0.0

Query: Look up the recorded call for `CCOC(=O)/C(=C\c1ccc2ccccc2c1)P(=O)(OCC)OCC` in this test.
Reply: 0.0

Query: Look up the recorded call for C[As](C)SC1OCC(O)C(O)C1O (stereo unspecified) in this test.
Reply: 1.0

Query: Look up the recorded call for COc1ccc(C2NC(=S)NC3=C2CCOc2c3ccc3ccccc23)cc1 (stereo unspecified) in this test.
Reply: 0.0

###

Test system: NCI/ADR-RES ovarian
Assay: NCI tumour cell line growth inhibition, 48 h
QUANTITY NAME: TGI

Example compounds with recorded TGI:
COMPOUND	TGI
CC(C)OP(=O)(OC(C)C)C(C)(C)O	> 100 µM
CN(CCc1ccccn1)c1ccc2c(c1)C(=O)c1ccccc1-2	> 100 µM
Cc1ccc(S(=O)(=O)N2CCNCCN(S(=O)(=O)c3ccc(C)cc3)CCNCC2)cc1	> 100 µM
CC(Oc1ccc(Cl)cc1Cl)C(=O)NN1C(=O)CC(=O)N(c2ccccc2)C1=S (stereo not given)	> 100 µM

Query: Param item = CCOC1Oc2ccc(C)cc2C(=O)/C1=C\Nc1ccc(S(N)(=O)=O)cc1 (stereo not given) ; retrieve measured TGI.
Reply: 18.5 µM

###

System: NCI-H226 lung
Assay: NCI tumour cell line growth inhibition, 48 h
QUANTITY NAME: TGI

Example molecules with recorded TGI:
MOLECULE	RESULT
O=CNc1ccccc1OCCOc1ccccc1NC=O	> 100 µM
C1CCCN(NC2=NCCO2)CC1	> 100 µM

Query: Which measured TGI belongs to CCCNCCCCC(NC(C)=O)C(=O)NCc1ccccc1 (stereo unspecified) , tested on NCI-H226 lung?
Reply: > 100 µM

Query: Which measured TGI belongs to Cc1ccc(C2CC(c3ccc(Nc4ccnc5cc(Cl)ccc45)cc3)=NN2C=O)cc1 (stereo unspecified) , tested on NCI-H226 lung?
Reply: > 100 µM

Query: Which measured TGI belongs to `O=[N+]1[C@H](c2ccccc2)[C@H](c2ccccc2)N1[O-]` , tested on NCI-H226 lung?
Reply: 38.9 µM

Query: Which measured TGI belongs to COC(=O)C(=O)C(C(=O)C(=O)Nc1ccc(C)cc1C)c1nc2ccc(Cl)cc2[nH]c1=O (stereo unspecified) , tested on NCI-H226 lung?
Reply: > 100 µM

Query: Which measured TGI belongs to `Nn1c(-c2ccc(Cl)cc2)nc2c(-c3ccc(Cl)cc3)nc3ccc(Cl)cc3c2c1=O` , tested on NCI-H226 lung?
Reply: > 100 µM

Query: Which measured TGI belongs to `COc1ccc2nc3ccc(OC)cc3c(SCCCl)c2c1` , tested on NCI-H226 lung?
Reply: > 100 µM

Query: Which measured TGI belongs to `O=C(Nc1ccccc1)OCCN=C1c2ccccc2CCc2ccccc21` , tested on NCI-H226 lung?
Reply: 55 µM

Query: Which measured TGI belongs to `NC(=O)/C(=C/n1cnc(-c2cc(C(F)(F)F)cc(C(F)(F)F)c2)n1)c1cncnc1` , tested on NCI-H226 lung?
Reply: 7.73 µM

Query: Which measured TGI belongs to `CC(=O)/C(=C\I)c1ccccc1` , tested on NCI-H226 lung?
Reply: 47.6 µM

###

System: MDA-MB-231 breast
Experiment: NCI tumour cell line growth inhibition, 48 h
Form field: TGI (one value per entry).

Example molecules with recorded TGI:
MOLECULE	RESULT
CCn1c(-c2nonc2N)nc2cnc(Oc3cccc(NC(=O)c4ccc(N(C)C)cc4)c3)cc21	> 25 µM
CC(Oc1ccccc1Cl)C(=O)NN1C(=O)CC(=O)N(c2ccc(Cl)cc2)C1=S (centres undefined)	> 100 µM
COc1cc2cc(C(=O)N3CC(CCl)c4ccc([N+](C)(C)Cc5ccccc5[N+](=O)[O-])cc43)[nH]c2c(OC)c1OC (centres undefined)	> 31.9 µM
Cc1cc(NS(=O)(=O)c2ccc(N=[N+]([O-])c3ccc(S(=O)(=O)Nc4cc(C)on4)cc3)cc2)no1	> 100 µM

Query: Param item = `C#C[C@]1(O)CC[C@H]2[C@@H]3CC=C4c5nc(N)sc5CC[C@]4(C)[C@H]3CC[C@@]21C` ; retrieve measured TGI.
Reply: 9.67 µM

Query: Param item = `CC(C)(C)O/N=C/c1cc(NC(=S)c2ccsc2)ccc1Cl` ; retrieve measured TGI.
Reply: 32.1 µM

Query: Param item = OCC(O)C(O)C(O)C(O)c1nnc2c(-c3ccccc3)nc3ccccc3n12 (centres undefined) ; retrieve measured TGI.
Reply: > 100 µM

Query: Param item = `O=C1Nc2ccc3c(c2/C1=C\c1cc2c(cc1Br)OCO2)OCO3` ; retrieve measured TGI.
Reply: 3.27 µM

Query: Param item = `C/C(C=O)=C/[C@@]1(C)O[C@@H](C)[C@@](C)(O)[C@@H]1O` ; retrieve measured TGI.
Reply: > 100 µM

###

Test system: TK-10 renal
Assay: NCI tumour cell line growth inhibition, 48 h
Form field: TGI (one value per entry).
The reply should contain only the number, in µM.

CHEMICAL SMILES	READOUT UNIT	TGI
CCOc1nc2c(N3CCCC3)nc(N3CCNCC3)nc2nc1NCc1ccccc1	µM	5.58

Read the next record carefully.
Query: Param item = `O=[N+]([O-])/C=C/c1ccc(Cl)cc1[N+](=O)[O-]` ; retrieve measured TGI.
Reply: 3.48

###

Tested on: SF-295 CNS
Assay: NCI tumour cell line growth inhibition, 48 h
QUANTITY NAME: GI50

MOLECULE	TEST TARGET	GI50
CC(C)OP(=O)(O)c1ncc(-c2ccc(C(F)(F)F)cc2)c(NC2CCCCCC2)n1	SF-295 CNS	> 100000 nM
COc1ccc(-c2c(N)noc2-c2cc(OC)c3c(c2)OCCO3)cc1	SF-295 CNS	< 10 nM
COc1ccc2c(c1)C(=O)c1c-2c(OCCN(C)C)nc2cc(OC)c(OC)cc12	SF-295 CNS	29.3 nM
COc1cc2cc(Oc3cccc(NC(=O)Nc4cc(C(F)(F)F)cc(C(F)(F)F)c4)c3)c(C)nc2cc1OC	SF-295 CNS	481 nM
Cn1cnnc1[S-].[Au+].c1ccc([PH+](c2ccccc2)c2ccccc2)cc1	SF-295 CNS	1850 nM
C=C1C[C@@H]2O[C@H]3[C@H]4[C@@H](CC[C@@](C)(OC(=O)CCC)[C@H]42)[C@@H](C)C(=O)O[C@@]3(C)CC[C@H]1OO	SF-295 CNS	17800 nM
CC[C@H]1OC(=O)[C@H](C)[C@@H](O[C@H]2C[C@@](C)(OC)[C@@H](O)[C@H](C)O2)[C@H](C)[C@@H](O[C@@H]2O[C@H](C)C[C@H](N(C)C)[C@H]2O)[C@](C)(OC)C/C(C)=C2/O[C@@]1(C)C=C2C	SF-295 CNS	1850 nM
C=CC(=O)Nc1cc2c(Nc3ccc(F)c(Cl)c3)ncnc2cc1C#CC(C)(C)N1CCN(C)CC1	SF-295 CNS	2940 nM

Query: Param item = CCCCCC[C@H]1C(=O)O[C@H](C)[C@H](NC(=O)c2cccc(NC=O)c2OC)C(=O)O[C@@H](C)[C@@H]1OC(=O)CCC (tested in a mixture with another compound) ; retrieve measured GI50.
Reply: 5990 nM

Query: Param item = `C[C@@H]1CCc2ncc(F)cc2[C@H]2CCCN2c2ccn3ncc(c3n2)C(=O)N1` ; retrieve measured GI50.
Reply: 60600 nM

Query: Param item = CC1(C)C2CCC13C(=O)C1OC3(C2)C2C(=O)c3c(ccc4c3ccc3ccccc34)C(=O)C12 (configuration not stated) ; retrieve measured GI50.
Reply: 13200 nM

Query: Param item = `Nc1ccccc1C#Cc1ccccc1C#Cc1cccs1` ; retrieve measured GI50.
Reply: 16100 nM

Query: Param item = `CS(=O)(=O)Nc1cc(-c2ccc3ncnc(Nc4cccc(Cl)c4)c3c2)cnc1Cl` ; retrieve measured GI50.
Reply: 335 nM

Query: Param item = `CCOC(=O)c1c(CN2CCN(C)CC2)nc2ccc(Cl)cc2c1-c1ccccc1` ; retrieve measured GI50.
Reply: 3270 nM

Query: Param item = `NCCCN=c1ccc2c3c1c(O)c1c(O)ccc(=O)c1c3[nH]n2CCNCCO` ; retrieve measured GI50.
Reply: 1060 nM

Query: Param item = `COc1ccc(/C=C/C(=O)c2cc3c(N)c(C(=O)Nc4ccc(OC)cc4)sc3nc2C)cc1` ; retrieve measured GI50.
Reply: 64.5 nM

Query: Param item = `C#C[C@]1(O)CC[C@H]2[C@@H]3CC=C4c5nc(N)sc5CC[C@]4(C)[C@H]3CC[C@@]21C` ; retrieve measured GI50.
Reply: 1980 nM
